Tested on: Adrenergic receptor alpha-1 (Oryctolagus cuniculus)
assay.procedure: Alpha-1 adrenergic receptor affinity using ring preparations of rabbit thoracic aorta (RbTA).
endpoint: pKB

For the molecule CN(C)CCc1c(C(=O)NCc2ccccc2)[nH]c2ccc(CCN3C(=O)NC(c4ccccc4)(c4ccccc4)C3=O)cc12 , what pKB is on record?
5

Let us now turn to COc1ccc(CNC(=O)c2[nH]c3ccc(CCN4C(=O)NC(C)(C)C4=O)cc3c2CCN(C)C)cc1
4.73

Let us now turn to CN(C)CCc1c(C(=O)N(C)Cc2ccccc2)[nH]c2ccc(CCN3C(=O)NC(C)(C)C3=O)cc12
5.8

Let us now turn to CN(C)CCc1c(C(=O)NCc2ccc(F)cc2)[nH]c2ccc(CCN3C(=O)NC(C)(C)C3=O)cc12
5.46

----------
System: 5-hydroxytryptamine receptor 2A (Oryctolagus cuniculus)
assay.procedure: Binding affinity for 5-hydroxytryptamine 2A receptor of rabbit aorta ring preparations
Reported pKB values are given for each entry in this list.
Reply with the value as a number alone.

Field: example entries. Status: answers known.
So what pKB did CC(NC(=O)c1[nH]c2ccc(CCN3C(=O)NC(C)(C)C3=O)cc2c1CCN(C)C)c1ccccc1 (stereo not drawn) get with 5-hydroxytryptamine receptor 2A (Oryctolagus cuniculus)?
5.59

Let us now turn to CN(C)CCc1c(C(=O)NCc2ccccc2)[nH]c2ccc(CCN3C(=O)CNC3=O)cc12
6.09

Let us now turn to CCCCNC(=O)c1[nH]c2ccc(CCN3C(=O)CNC3=O)cc2c1CCN(C)C
5.2

Let us now turn to CN(C)CCc1c(C(=O)NCc2ccccc2)[nH]c2ccc(CCN3C(=O)NC(C)(C)C3=O)cc12
5.6

Let us now turn to CON(C)C(=O)c1[nH]c2ccc(CCN3C(=O)CNC3=O)cc2c1CCN(C)C
5.3

Others:
So what pKB did CN(C)CCc1c(C(=O)NCCc2ccccc2)[nH]c2ccc(CCN3C(=O)NC(C)(C)C3=O)cc12 get with 5-hydroxytryptamine receptor 2A (Oryctolagus cuniculus)?
5.35

Let us now turn to CN(C)CCc1c(C(=O)N(C)Cc2ccccc2)[nH]c2ccc(CCN3C(=O)NC(C)(C)C3=O)cc12
6.03

Let us now turn to CN(C)CCc1c(C(=O)NCc2ccc(Cl)cc2)[nH]c2ccc(CCN3C(=O)CNC3=O)cc12
6.31

----------
Tested on: 5-hydroxytryptamine receptor 1B (Oryctolagus cuniculus)
assay.procedure: Binding affinity against vascular 5-hydroxytryptamine 1B receptor, measured using ring preparations of rabbit saphenous vein (RbSV)
endpoint: pKB

So what pKB did CCCCNC(=O)c1[nH]c2ccc(CCN3C(=O)NC(C)(C)C3=O)cc2c1CCN(C)C get with 5-hydroxytryptamine receptor 1B (Oryctolagus cuniculus)?
5.47

Let us now turn to CN(C)CCc1c(C(=O)NCc2ccccc2)[nH]c2ccc(CCN3C(=O)NC(c4ccccc4)(c4ccccc4)C3=O)cc12
6.44

Let us now turn to CC(NC(=O)c1[nH]c2ccc(CCN3C(=O)NC(C)(C)C3=O)cc2c1CCN(C)C)c1ccccc1 (centres undefined)
5.5

Let us now turn to CN(C)CCc1c(C(=O)NCc2ccccc2N)[nH]c2ccc(CCN3C(=O)N(C)C(C)(c4ccccc4)C3=O)cc12 (centres undefined)
6.64

Let us now turn to CN(C)CCc1c(C(=O)NCc2ccc(F)cc2)[nH]c2ccc(CCN3C(=O)NC(C)(C)C3=O)cc12
7.3

Let us now turn to CN(C)CCc1c(C(=O)NCCc2ccccc2)[nH]c2ccc(CCN3C(=O)NC(C)(C)C3=O)cc12
5.57

Let us now turn to CN(C)CCc1c(C(=O)NCc2ccccc2N)[nH]c2ccc(CCN3C(=O)NC(C)(C)C3=O)cc12
6.72

Let us now turn to CN(C)CCc1c(C(=O)NCc2ccc(C(F)(F)F)cc2)[nH]c2ccc(CCN3C(=O)NC(C)(C)C3=O)cc12
6.2

Let us now turn to CN(C)CCc1c(C(=O)NCc2ccc(N)cc2)[nH]c2ccc(CCN3C(=O)NC(C)(C)C3=O)cc12
6.19

Let us now turn to CN(C)CCc1c(C(=O)NCc2ccccc2Cl)[nH]c2ccc(CCN3C(=O)NC(C)(C)C3=O)cc12
5.81

Let us now turn to CN(C)CCc1c(C(=O)NCc2ccc(Cl)c(Cl)c2)[nH]c2ccc(CCN3C(=O)NC(C)(C)C3=O)cc12
6.5

Let us now turn to CN(C)CCc1c(C(=O)NCc2cccc(Cl)c2)[nH]c2ccc(CCN3C(=O)NC(C)(C)C3=O)cc12
6.45

Let us now turn to CN(C)CCc1c(C(=O)N(C)Cc2ccccc2)[nH]c2ccc(CCN3C(=O)NC(C)(C)C3=O)cc12
5.8

Let us now turn to CN(C)CCc1c(C(=O)NN)[nH]c2ccc(CCN3C(=O)NC(C)(C)C3=O)cc12
5.48

Let us now turn to CN(C)CCc1c(C(=O)Nc2ccccc2)[nH]c2ccc(CCN3C(=O)NC(C)(C)C3=O)cc12
5.21

Let us now turn to CN(C)CCc1c(C(=O)NCc2ccccc2)[nH]c2ccc(CCN3C(=O)NC4(CCCC4)C3=O)cc12
7.2

Let us now turn to CCCCNC(=O)c1[nH]c2ccc(CCN3C(=O)CNC3=O)cc2c1CCN(C)C
5.94

Let us now turn to CN(C)CCc1c(C(=O)NCc2ccccc2O)[nH]c2ccc(CCN3C(=O)NC(C)(C)C3=O)cc12
6.61

Let us now turn to CNC(=O)c1[nH]c2ccc(CCN3C(=O)CNC3=O)cc2c1CCN(C)C
5.94

Let us now turn to CON(C)C(=O)c1[nH]c2ccc(CCN3C(=O)CNC3=O)cc2c1CCN(C)C
5.76

Let us now turn to CN(C)CCc1c(C(=O)NCc2cccc3ccccc23)[nH]c2ccc(CCN3C(=O)NC(C)(C)C3=O)cc12
5.5

Let us now turn to C#CCNC(=O)c1[nH]c2ccc(CCN3C(=O)NC(C)(C)C3=O)cc2c1CCN(C)C
5.44
